The measurements presented in this section are drawn from PubChem BioAssay (EPA / NIEHS).

Assay: APR_HepG2_MitoMass_24hr: Apredica 24-hour HepG2 Assay for Mitochondrial Mass (AID 2282912)
Conditions: high-content imaging, actives raise or lower the signal
Activity calls are given as the source filed them. How the source made its calls: active means hit-call score of the fitted dose curve at least 0.9, where 1 is the maximum; inactive means score below 0.9.
Answer with one of the outcomes active, inactive

Solved entries (count: 6):
[[record]]
molecule = "Cc1cc(Cl)ccc1OCC(=O)O"
assigned_category = "inactive"

[[record]]
molecule = "CCOc1cc(Oc2ccc(C(F)(F)F)cc2Cl)ccc1[N+](=O)[O-]"
assigned_category = "inactive"

[[record]]
molecule = "C#CCOS(=O)OC1CCCCC1Oc1ccc(C(C)(C)C)cc1 (stereo unspecified)"
assigned_category = "inactive"

[[record]]
molecule = "CCON=C(CC)C1=C(O)CC(c2c(C)cc(C)cc2C)CC1=O (stereo unspecified)"
assigned_category = "inactive"

[[record]]
molecule = "CC(Oc1ccc(Cl)cc1Cl)C(=O)O (stereo unspecified)"
assigned_category = "inactive"

[[record]]
molecule = "CC1COC(Cn2cncn2)(c2ccc(Oc3ccc(Cl)cc3)cc2Cl)O1 (stereo unspecified)"
assigned_category = "inactive"


Query: Name the outcome recorded for CCCCNC(=O)n1c(NC(=O)OC)nc2ccccc21 in the assay.
Reply: inactive

Query: Name the outcome recorded for Fc1ccc(Oc2ccnc3cc(Cl)cc(Cl)c23)cc1 in the assay.
Reply: inactive
